# Target Or System: CYP3A4 versus CYP3A5 (Homo sapiens, UniProt P20815)
# Construct: purchased Discovery Labware (Supersomes™); host or cells: insect cell expression system
# Sequence (P20815 whole entry): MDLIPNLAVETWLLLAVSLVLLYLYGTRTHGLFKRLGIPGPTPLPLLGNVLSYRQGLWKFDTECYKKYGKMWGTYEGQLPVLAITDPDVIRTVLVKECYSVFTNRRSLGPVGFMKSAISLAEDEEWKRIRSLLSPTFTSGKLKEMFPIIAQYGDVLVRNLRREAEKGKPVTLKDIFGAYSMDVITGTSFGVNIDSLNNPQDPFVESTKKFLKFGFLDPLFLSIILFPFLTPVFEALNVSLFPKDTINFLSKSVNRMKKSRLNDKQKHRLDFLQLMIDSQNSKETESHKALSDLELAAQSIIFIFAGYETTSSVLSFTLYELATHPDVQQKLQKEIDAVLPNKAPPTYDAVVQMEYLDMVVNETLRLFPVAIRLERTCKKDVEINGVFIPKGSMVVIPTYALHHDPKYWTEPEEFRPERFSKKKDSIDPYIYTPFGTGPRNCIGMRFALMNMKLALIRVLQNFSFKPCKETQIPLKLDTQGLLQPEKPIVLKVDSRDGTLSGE
# Experiment: Two-step luminescent P450 assay, recombinant enzyme panel screen
# Format: biochemical
# Measurement Conditions: human, recombinant human CYP3A4 and CYP3A5 microsomes (Supersomes), pH 7.4; FIG. 2 conditions: 50 μM compound, 1 pmole P450, 30 minutes; read-out: selectivity for CYP3A4 over CYP3A5
Quantity Name: selectivity ratio at 30 min, 50 μM
Keep it simple and answer with nothing but the number.

For CC(C)OC(OC(C)C)C1CSC(c2nc3ccc(O)cc3s2)=N1 (stereo not shown) on CYP3A4 versus CYP3A5 (Homo sapiens, UniProt P20815), measured selectivity ratio at 30 min, 50 μM was 1.4
